- protocol_details: Half life in human liver microsomes
- experimental_conditions: microsomes
property_name: half-life (min)
Numbers only, in min.

For the compound shown here, CC(C)(C(=O)NC(N)=O)[C@@H]1c2ccc(-c3ccc(C(=O)N4CCOCC4)cc3)nc2Oc2c(F)cccc21 , give the reported half-life. 41

###

- protocol_details: Clearance in iv dosed dog
- Assay type: ADME, organism-based, Canis lupus familiaris
- experimental_conditions: in vivo
property_name: clearance
Quick note: number first, unit second.

For the compound shown here, CC(C)Oc1ccc(-c2ccc3c(n2)Oc2c(F)cccc2[C@@H]3C(C)(C)C(=O)NC(N)=O)cn1 , give the reported clearance. 9 mL/min/kg

###

Assignment: determine reported Ki for the given molecules.
- assayed_target: Progesterone receptor (Homo sapiens)
- Sequence (P06401 whole entry): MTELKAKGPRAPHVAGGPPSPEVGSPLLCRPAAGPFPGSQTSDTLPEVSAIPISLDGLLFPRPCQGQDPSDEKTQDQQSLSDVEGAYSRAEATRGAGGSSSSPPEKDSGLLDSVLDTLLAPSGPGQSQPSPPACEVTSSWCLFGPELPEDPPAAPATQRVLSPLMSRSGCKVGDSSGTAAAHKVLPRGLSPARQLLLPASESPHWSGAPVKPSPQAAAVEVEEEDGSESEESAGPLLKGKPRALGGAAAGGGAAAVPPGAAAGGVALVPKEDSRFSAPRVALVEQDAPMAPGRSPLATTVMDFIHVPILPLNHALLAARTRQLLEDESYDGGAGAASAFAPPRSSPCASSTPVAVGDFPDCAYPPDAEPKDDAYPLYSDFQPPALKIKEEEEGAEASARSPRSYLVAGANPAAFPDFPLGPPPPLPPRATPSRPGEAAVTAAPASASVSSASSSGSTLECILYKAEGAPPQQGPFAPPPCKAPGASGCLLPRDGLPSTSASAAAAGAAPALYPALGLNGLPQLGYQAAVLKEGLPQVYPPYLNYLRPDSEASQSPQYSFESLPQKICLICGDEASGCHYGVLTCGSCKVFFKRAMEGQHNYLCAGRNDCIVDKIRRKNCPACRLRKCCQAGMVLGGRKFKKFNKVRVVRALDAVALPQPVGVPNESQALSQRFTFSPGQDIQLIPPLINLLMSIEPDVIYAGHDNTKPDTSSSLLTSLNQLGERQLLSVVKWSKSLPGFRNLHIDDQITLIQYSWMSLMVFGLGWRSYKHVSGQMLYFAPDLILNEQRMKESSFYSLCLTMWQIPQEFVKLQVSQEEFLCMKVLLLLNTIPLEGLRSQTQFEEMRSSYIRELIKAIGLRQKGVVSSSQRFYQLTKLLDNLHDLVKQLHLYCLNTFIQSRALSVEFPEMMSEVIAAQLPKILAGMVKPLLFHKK
Quick note: number first, unit second.

chemical_string=CC(C)(C(=O)Nc1nncs1)[C@@H]1c2ccc(-c3ccc(C(=O)N4CCOCC4)cc3)nc2Oc2c(F)cccc21 measurement="44.9 nM"
chemical_string=CC(C)(C(=O)NC(N)=O)[C@@H]1c2ccc(-c3ccc(C(=O)N4CC[C@H](F)C4)cc3)nc2Oc2c(F)cccc21 measurement="33300 nM"
chemical_string=CC(C)(C(=O)NC(N)=O)[C@H]1c2ccccc2Oc2nc(-c3ccc(C(=O)N4CCOCC4)cc3)ccc21 measurement="282 nM"
chemical_string=CC(C)C(=O)NC(=O)C(C)(C)[C@@H]1c2ccc(-c3ccc(C(=O)N4CCOCC4)cc3)nc2Oc2c(F)cccc21 measurement="5040 nM"
chemical_string=CC(C)(C(=O)NC(=O)NC1CCC1)[C@@H]1c2ccc(-c3ccc(C(=O)N4CCOCC4)cc3)nc2Oc2c(F)cccc21 measurement="5340 nM"
chemical_string=CCNC(=O)NC(=O)C(C)(C)[C@@H]1c2ccc(-c3ccc(C(=O)N4CCOCC4)cc3)nc2Oc2c(F)cccc21 measurement="2910 nM"
chemical_string=CC(=O)NC(=O)C(C)(C)[C@@H]1c2ccc(-c3ccc(C(=O)N4CCOCC4)cc3)nc2Oc2c(F)cccc21 measurement="268 nM"
chemical_string=CCN(C)C(=O)c1ccc(-c2ccc3c(n2)Oc2ccccc2[C@@H]3C(C)(C)C(=O)Nc2nncs2)cc1 measurement="1830 nM"

Now, please, on to the next molecule.
// fetch Progesterone receptor (Homo sapiens) Ki for CC(C)(C(=O)NC(N)=O)[C@H]1c2ccccc2Oc2nc(-c3ccc(C(=O)N4CCCC4)cc3)ccc21 2320 nM

###

- assayed_target: UniProtKB P04150
- protocol_details: Agonist activity at glucocorticoid receptor in human A549 cells assessed as E-selectin transrepression by luciferase reporter gene assay
- Type: cell-based
Doc: threshold 30 nM (exclusive). Items with EC50 beneath it return class 1; others return class 0.

Worked examples, 3 compounds total:
chemical_string=CC(C)(C(=O)NC(N)=O)[C@@H]1c2ccc(-c3ccc(C(=O)N4CCCC4)nc3)nc2Oc2c(F)cccc21 label="class 1"
chemical_string=CC(=O)NC(=O)C(C)(C)[C@@H]1c2ccc(-c3ccc(C(=O)N4CCOCC4)cc3)nc2Oc2c(F)cccc21 label="class 1"
chemical_string=CC(C)(C(=O)NC(N)=O)[C@H]1c2ccccc2Oc2nc(-c3ccc(C(=O)N4CCOCC4)cc3)ccc21 label="class 1"

Is it true that EC50 reported for CC(C)(C(=O)NC(N)=O)[C@@H]1c2ccc(-c3ccc(C(=O)N4CC[C@H](F)C4)cc3)nc2Oc2c(F)cccc21 is less than 30 nM? class 1

Is it true that EC50 reported for CC(C)Oc1ccc(-c2ccc3c(n2)Oc2c(F)cccc2[C@@H]3C(C)(C)C(=O)NC(N)=O)cn1 is less than 30 nM? class 1

Is it true that EC50 reported for CN(C)C(=O)c1ccc(-c2ccc3c(n2)Oc2ccccc2[C@@H]3C(C)(C)C(=O)Nc2nncs2)cc1 is less than 30 nM? class 0

Is it true that EC50 reported for CN(C)C(=O)NC(=O)C(C)(C)[C@@H]1c2ccc(-c3ccc(C(=O)N4CCOCC4)cc3)nc2Oc2c(F)cccc21 is less than 30 nM? class 0

Is it true that EC50 reported for CC(C)C(=O)NC(=O)C(C)(C)[C@@H]1c2ccc(-c3ccc(C(=O)N4CCOCC4)cc3)nc2Oc2c(F)cccc21 is less than 30 nM? class 0

###

- assayed_target: Glucocorticoid receptor (Homo sapiens, UniProt P04150)
- Sequence (P04150 whole entry): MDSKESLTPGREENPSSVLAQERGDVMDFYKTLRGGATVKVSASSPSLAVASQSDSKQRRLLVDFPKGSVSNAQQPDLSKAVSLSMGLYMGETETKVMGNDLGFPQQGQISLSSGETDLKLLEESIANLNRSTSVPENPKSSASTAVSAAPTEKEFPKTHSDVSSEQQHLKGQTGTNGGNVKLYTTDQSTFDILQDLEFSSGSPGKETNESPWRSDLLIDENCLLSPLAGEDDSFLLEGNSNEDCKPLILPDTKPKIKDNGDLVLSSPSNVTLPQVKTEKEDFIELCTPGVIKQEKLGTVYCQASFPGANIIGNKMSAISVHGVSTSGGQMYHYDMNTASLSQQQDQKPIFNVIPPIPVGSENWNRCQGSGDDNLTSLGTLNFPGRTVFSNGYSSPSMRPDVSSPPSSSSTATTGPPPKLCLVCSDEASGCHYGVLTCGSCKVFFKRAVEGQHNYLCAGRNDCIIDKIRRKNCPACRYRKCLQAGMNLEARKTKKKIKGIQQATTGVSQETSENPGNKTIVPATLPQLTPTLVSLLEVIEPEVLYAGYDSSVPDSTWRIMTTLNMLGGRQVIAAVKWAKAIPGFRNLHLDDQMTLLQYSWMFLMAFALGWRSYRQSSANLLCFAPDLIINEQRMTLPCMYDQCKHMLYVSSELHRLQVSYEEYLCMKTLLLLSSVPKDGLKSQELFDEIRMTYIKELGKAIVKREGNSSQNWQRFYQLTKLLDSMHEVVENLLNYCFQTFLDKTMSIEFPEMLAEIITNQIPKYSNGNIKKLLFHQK
- protocol_details: Agonist activity at glucocorticoid receptor in human A549 cells assessed as AP-1 transrepression by luciferase reporter gene assay
- Format: cell-based
Assignment: determine reported EC50 for the given compounds.
One number for each entry, in nM.

Completed entries (count: 3):
chemical_string=CC(C)(C(=O)NC(N)=O)[C@@H]1c2ccc(-c3ccc(C(=O)N4CCCC4)nc3)nc2Oc2c(F)cccc21 measurement=16.5
chemical_string=CC(=O)NC(=O)C(C)(C)[C@@H]1c2ccc(-c3ccc(C(=O)N4CCCC4)cc3)nc2Oc2c(F)cccc21 measurement=5.1
chemical_string=CC(C)(C(=O)Nc1nncs1)[C@@H]1c2ccc(-c3ccc(C(=O)N4CCOCC4)cc3)nc2Oc2c(F)cccc21 measurement=2.1

For the compound shown here, CNC(=O)NC(=O)C(C)(C)[C@@H]1c2ccc(-c3ccc(C(=O)N4CCOCC4)cc3)nc2Oc2c(F)cccc21 , give the reported EC50. 10.7

###

- Tested on: Liver
- protocol_details: Metabolic stability in mouse liver microsomes assessed as compound remaining
Assignment: determine reported Stability for the given compounds.
Answers are plain numbers, in %.

chemical_string=CC(C)(C(=O)NC(N)=O)[C@@H]1c2ccc(-c3ccc(C(=O)N4CCCC4)cc3)nc2Oc2c(F)cccc21 assayed_target=Liver measurement=73

Give Stability for each of the items listed below.
1. CC(C)(C(=O)NC(N)=O)[C@H]1c2ccccc2Oc2nc(-c3ccc(C(=O)N4CCOCC4)cc3)ccc21
2. CC(C)Oc1ccc(-c2ccc3c(n2)Oc2c(F)cccc2[C@@H]3C(C)(C)C(=O)NC(N)=O)cn1
3. CC(C)(C(=O)NC(N)=O)[C@@H]1c2ccc(-c3ccc(C(=O)N4CCCC4)nc3)nc2Oc2c(F)cccc21

1: 75; 2: 86; 3: 86

Give Stability for each of the items listed below.
1. CC(C)(C(=O)NC(N)=O)[C@@H]1c2ccc(-c3ccc(C(=O)N4CCOCC4)cc3)nc2Oc2c(F)cccc21
2. CC(C)(O)c1ccc(-c2ccc3c(n2)Oc2c(F)cccc2[C@@H]3C(C)(C)C(=O)NC(N)=O)cn1

1: 80; 2: 76

Give Stability for each of the items listed below.
1. CC(C)(C(=O)NC(N)=O)[C@@H]1c2ccc(-c3ccc(C(=O)N4CC[C@H](F)C4)cc3)nc2Oc2c(F)cccc21
2. CC(C)(C(=O)NC(N)=O)[C@H]1c2ccccc2Oc2nc(-c3ccc(C(=O)N4CCCC4)cc3)ccc21

1. 77
2. 76
